Would you mind telling me the reported polymerase ribozyme fitness (log ratio) of each entry?
B1: TPR 5TU (parent)
chain: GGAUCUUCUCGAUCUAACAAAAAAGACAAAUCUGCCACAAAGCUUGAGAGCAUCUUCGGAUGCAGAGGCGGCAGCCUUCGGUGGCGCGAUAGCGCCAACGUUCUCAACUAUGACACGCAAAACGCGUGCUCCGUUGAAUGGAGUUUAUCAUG

# Variants of: B1
# PROTOCOL DETAILS: polymerase ribozyme fitness, log enrichment relative to wild type (log ratio); higher = more active; in vitro selection for triplet polymerase activity
Fewer inactive variants are shown than the library holds.
Enter the number alone.

[Q] Quick check: polymerase ribozyme fitness (log ratio) of U9C U55G ?
[A] -3.53

[Q] Sample G81U C85A U139G — what was its polymerase ribozyme fitness (log ratio)?
[A] -0.703

[Q] Give its polymerase ribozyme fitness (log ratio) value. Item: C32U G84A
[A] -2.55

[Q] polymerase ribozyme fitness (log ratio) lookup needed for C35U A106U A142U , thanks.
[A] -4.15

[Q] If you can, please state the reported polymerase ribozyme fitness (log ratio) value of G34U U82G C96G A106G U145C .
[A] -3.75

[Q] Request the reported polymerase ribozyme fitness (log ratio) associated with A40U A106G
[A] 0.3

[Q] Sample U31A C87G C114A — what was its polymerase ribozyme fitness (log ratio)?
[A] -4.03

[Q] Can you share its polymerase ribozyme fitness (log ratio)? I mean this variant: A47C C54U G84A U109G
[A] -1.84

[Q] Which polymerase ribozyme fitness (log ratio) value is on record for C103G U144A ?
[A] -2.15

[Q] Data request, read-out polymerase ribozyme fitness (log ratio), for C85A A89G U146C
[A] -2.83

[Q] # query: polymerase ribozyme fitness (log ratio) of entry A41G G59A G81U C95A C114U
[A] -1.27

[Q] Given G86C C96U , state its recorded polymerase ribozyme fitness (log ratio).
[A] -2.67

[Q] What does the data say about its polymerase ribozyme fitness (log ratio)? Entry: A19G G59U
[A] -0.93

[Q] Which polymerase ribozyme fitness (log ratio) reading was recorded for the variant C95U A98G ?
[A] -1.9

[Q] Query (variant): G94C G126A ; field requested: polymerase ribozyme fitness (log ratio)
[A] 0.311

[Q] Name the recorded polymerase ribozyme fitness (log ratio) for C69U C96G C125U .
[A] -1.78

[Q] Need polymerase ribozyme fitness (log ratio), item G62U
[A] -0.546

[Q] polymerase ribozyme fitness (log ratio) lookup needed for A115U G141C , thanks.
[A] -3.37

[Q] Requested field: polymerase ribozyme fitness (log ratio). Item: U53A A120G
[A] -1.88

[Q] Find the recorded polymerase ribozyme fitness (log ratio) belonging to A12U A91G and report it.
[A] -2.26

[Q] Which polymerase ribozyme fitness (log ratio) value belongs to C38A U148A ?
[A] -4.04

[Q] Which polymerase ribozyme fitness (log ratio) value is on record for A19U G86C ?
[A] -2.58

[Q] Look up polymerase ribozyme fitness (log ratio) for this variant: A12U C38U G83U
[A] -0.788

[Q] Report polymerase ribozyme fitness (log ratio) for C27U U55A U56A please.
[A] -2.25

[Q] Name the reported polymerase ribozyme fitness (log ratio) value associated with the variant A16C C51U G84U U135A
[A] -3.41

[Q] Given the entry G140U A147U , report its measured polymerase ribozyme fitness (log ratio).
[A] -2.9

[Q] Param item = C72U U145A ; retrieve measured polymerase ribozyme fitness (log ratio).
[A] 0.261

[Q] Name the reported polymerase ribozyme fitness (log ratio) value associated with the variant C54U C87U A115U
[A] -1.85

[Q] What polymerase ribozyme fitness (log ratio) value was documented for this variant, A19C A41C U148C ?
[A] -1.99

[Q] Field request: polymerase ribozyme fitness (log ratio) | item: C96U U148G
[A] -3.13

[Q] Which measured polymerase ribozyme fitness (log ratio) value corresponds to G84C A115G ?
[A] -2.49

[Q] What value of polymerase ribozyme fitness (log ratio) has been reported for the following variant? A115C U127C
[A] -1.1

[Q] State the recorded polymerase ribozyme fitness (log ratio) for this entry: C35G C105U C129A A150C
[A] -4.14

[Q] // returns reported polymerase ribozyme fitness (log ratio) for input A26G U55A
[A] -2.03

[Q] Suppose we examine the variant A21U C93U U144C ; what polymerase ribozyme fitness (log ratio) value has been reported?
[A] -0.648

[Q] Please give the measured polymerase ribozyme fitness (log ratio) for this variant: G83U C93U
[A] -2.69

[Q] # query: polymerase ribozyme fitness (log ratio) of entry A52G C57A G83U A91G C95A
[A] -4.15

[Q] Return reported polymerase ribozyme fitness (log ratio); argument: A20U C54A
[A] -2.02

[Q] What does the data say about its polymerase ribozyme fitness (log ratio)? Entry: A17U G84U
[A] -1.75

[Q] Consider the variant shown here: G74A U145A What is its recorded polymerase ribozyme fitness (log ratio)?
[A] -3.36

[Q] Endpoint output: polymerase ribozyme fitness (log ratio) of G50U U102G . Value?
[A] -2.92

[Q] # get_value(readout='polymerase ribozyme fitness (log ratio)', item= A22G C85G A150G )
[A] -3.09

[Q] Any idea what polymerase ribozyme fitness (log ratio) was measured for C85U A121C ?
[A] -0.139

[Q] // returns reported polymerase ribozyme fitness (log ratio) for input A47G U55G
[A] 0.325

[Q] Quick one: polymerase ribozyme fitness (log ratio) for C57A A113U ?
[A] -1.86

[Q] # input variant: U4C U53A U55A G81C A150U ; wanted: its polymerase ribozyme fitness (log ratio)
[A] -1.4
